Measured phosphorylation enrichment accompanies every entry in the list below.
# targetEntity: FGFR1 (UniProt P11362)
# Sequence (P11362 whole entry, looked up): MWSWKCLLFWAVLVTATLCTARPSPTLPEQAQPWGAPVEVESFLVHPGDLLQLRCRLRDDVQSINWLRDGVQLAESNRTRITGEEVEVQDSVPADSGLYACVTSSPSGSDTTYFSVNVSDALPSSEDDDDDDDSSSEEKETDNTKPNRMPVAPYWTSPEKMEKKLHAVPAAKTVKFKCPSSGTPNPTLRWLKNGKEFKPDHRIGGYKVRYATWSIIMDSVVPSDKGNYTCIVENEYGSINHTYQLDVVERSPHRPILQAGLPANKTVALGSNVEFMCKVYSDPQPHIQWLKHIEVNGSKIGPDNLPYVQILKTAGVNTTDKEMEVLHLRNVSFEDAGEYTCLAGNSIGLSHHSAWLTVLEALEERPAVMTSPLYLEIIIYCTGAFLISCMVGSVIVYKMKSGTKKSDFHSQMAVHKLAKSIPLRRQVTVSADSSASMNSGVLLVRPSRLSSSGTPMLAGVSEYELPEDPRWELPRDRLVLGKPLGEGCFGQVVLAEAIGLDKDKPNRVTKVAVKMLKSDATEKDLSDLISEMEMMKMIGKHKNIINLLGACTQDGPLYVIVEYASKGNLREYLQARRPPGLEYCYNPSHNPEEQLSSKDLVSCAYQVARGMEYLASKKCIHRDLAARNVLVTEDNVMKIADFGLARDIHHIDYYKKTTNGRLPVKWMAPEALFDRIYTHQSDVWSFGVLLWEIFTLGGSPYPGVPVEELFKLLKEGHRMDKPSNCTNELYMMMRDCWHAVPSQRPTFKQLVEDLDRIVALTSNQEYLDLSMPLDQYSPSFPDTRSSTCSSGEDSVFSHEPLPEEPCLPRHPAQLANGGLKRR
# assayInfo: phosphorylation enrichment, bacterial display (enrichment ratio); higher = better substrate or ligand; peptides without Tyr show the background

itemSequence: MAYDRYAAICS [OR8H2_Y123_H120Y]
phosphorylation enrichment: 0.526
//
itemSequence: RKGGSYSQAAS [HLA-A_Y344_T345S]
phosphorylation enrichment: 0.523
//
itemSequence: LRGEDYGFSVD [PRKCI_Y430]
phosphorylation enrichment: 0.587
//
itemSequence: RELSWYRGQRP [HESX1_Y106_R109Q]
phosphorylation enrichment: 0.506
//
itemSequence: ELTAKYLNYYQ [P3H4_Y181]
phosphorylation enrichment: 0.683
//
itemSequence: WSRAMYPDLGP [STARD8_Y330]
phosphorylation enrichment: 0.467
//
itemSequence: AKKKMYSRKTK [AGXT_Y231]
phosphorylation enrichment: 0.546
//
itemSequence: MSRDVYSIDFF [NTRK2_Y702_T704I_YF]
phosphorylation enrichment: 1.61

* * *

# targetEntity: Grb2 SH2 (UniProt P62993)
# Sequence (P62993 whole entry, looked up): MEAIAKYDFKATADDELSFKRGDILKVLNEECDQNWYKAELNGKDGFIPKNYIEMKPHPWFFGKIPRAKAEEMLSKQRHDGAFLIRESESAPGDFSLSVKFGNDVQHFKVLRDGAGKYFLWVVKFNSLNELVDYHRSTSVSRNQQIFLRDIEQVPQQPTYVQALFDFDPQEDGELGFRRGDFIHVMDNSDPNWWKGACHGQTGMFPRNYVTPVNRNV
# assayInfo: SH2 binding enrichment of the phosphorylated peptide, bacterial display (enrichment ratio); higher = better substrate or ligand; peptides without Tyr show the background
Response field class: string, computed from recorded SH2 binding enrichment by ranges b0 = under 0.8, b1 = from 0.8 up to 1, b2 = 1 and over

itemSequence: AKKKMYSLKTK [AGXT_Y231_R233L]
classAssignment: b2
--
itemSequence: RLLVVYRWTQR [HBB_Y36_P37R]
classAssignment: b0
--
itemSequence: GMRHGYGVRQS [JPH2_Y141]
classAssignment: b2
--
itemSequence: PKGTGYIKTEL [STAT1_Y701]
classAssignment: b1
--
itemSequence: MDNQEYKDAFT [BRDT_Y331_K336T_YF]
classAssignment: b0
--
itemSequence: DEDYLYREELA [POR_Y575]
classAssignment: b1
--
itemSequence: KALSLYTKLMN [STAM_Y371_E366K]
classAssignment: b2
--
itemSequence: KQFWRYFAGNL [SLC25A4_Y112]
classAssignment: b2
--
itemSequence: MIRSAYALGGL [CPS1_Y590]
classAssignment: b0
--
itemSequence: GSSSSYGQHGS [HRNR_Y517]
classAssignment: b1
--
itemSequence: RLNWIYYKDQT [RS1_Y165]
classAssignment: b2
--
itemSequence: TEAEPYYRSLR [NPHS1_Y1138]
classAssignment: b1
--
itemSequence: SASRSYSRSRS [SRRM4_Y549]
classAssignment: b0
--
itemSequence: CSGNCYLDIRP [FBN1_Y1535_R1530C]
classAssignment: b2
--
itemSequence: DEFLEYRRIVG [FAM221A_Y20_YF]
classAssignment: b1
--
itemSequence: VQVAYYTMMMN [SPATA17_Y84]
classAssignment: b2
--
itemSequence: KIVFVYVKKRS [DNAI2_Y7_E2K_YF]
classAssignment: b2
--
itemSequence: ISRVLYPNDNF [PYGM_Y281]
classAssignment: b0
--
itemSequence: PSDPSYEDMRE [BMPR1A_Y467]
classAssignment: b1
--
itemSequence: LAARFYNWVCF [FLT4_Y1231_S1235C_YF]
classAssignment: b2
--
itemSequence: FHLLPYTIRAM [PARS2_Y93_V95I_YF]
classAssignment: b2
--
itemSequence: KVQVSYKGETK [HSPA1A_Y107]
classAssignment: b1
--
itemSequence: GRTPLYMDRQG [AGXT_Y194_G190R]
classAssignment: b1
--
itemSequence: RFGKVYKAHLF [ROR2_Y488_G490A]
classAssignment: b2
--
itemSequence: EEVGIYRMSGV [BCR_Y1089_V1091M]
classAssignment: b0
--
itemSequence: ANNPLYKEVTS [ITGB3_Y773_A776V]
classAssignment: b2
--
itemSequence: GRSTYYWPRPR [GAGE12J_Y10]
classAssignment: b0
--
itemSequence: NVVNEYSSELE [FGB_Y172]
classAssignment: b1
--
itemSequence: VVAHQYSFAPD [TNS3_Y601]
classAssignment: b0
--
itemSequence: EDGCIYPATIA [SMN1_Y109]
classAssignment: b1
--
itemSequence: SRIWVYNHYRC [BRCA2_Y2621_W2626C]
classAssignment: b1
--
itemSequence: RDLTDYLMKIL [ACTA1_Y190]
classAssignment: b2
--
itemSequence: MANYMYKAGPS [MAML2_Y515]
classAssignment: b1
--
itemSequence: KIKGRYEKCEP [KRT26_Y119_W118R]
classAssignment: b2
--
itemSequence: HLQQSYLPRGT [TEX45_Y396]
classAssignment: b0
--
itemSequence: CDGKEYDPVEA [MAPRE2_Y167_Y162C]
classAssignment: b0
--
itemSequence: YRVAGYETQGG [TIA1_Y383]
classAssignment: b0
--
itemSequence: CTTIHYNYICN [TP53_Y234_M237I]
classAssignment: b2
--
itemSequence: QRIHNYFEHRF [HCN4_Y554_D553N_YF]
classAssignment: b2
--
itemSequence: DDYDLYGGEKF [PTPN11_Y66_Y62D]
classAssignment: b0
--
itemSequence: LKKKQYTSIHH [APP_Y728]
classAssignment: b2
--
itemSequence: TWSPKYTLRSH [STRN3_Y474_N471S]
classAssignment: b2
--
itemSequence: QVKEQYQDVPM [PKP2_Y659_K654Q]
classAssignment: b1
--
itemSequence: RPIEVYLCPEE [E2F3_Y349_G344R]
classAssignment: b1
--
itemSequence: GRLFAYPDTHC [CAT_Y358_R363C]
classAssignment: b1
--
itemSequence: DPFHVYIKNRV [KCNE3_Y95_YF]
classAssignment: b2
--
itemSequence: GVIKEYQIRQV [USH2A_Y3623]
classAssignment: b1
--
itemSequence: TRSFDYTEGGD [FGF7_Y58_M59T_YF]
classAssignment: b1
--
itemSequence: GDEVEYMSVSF [GCLC_Y53_L55S]
classAssignment: b0
--
itemSequence: SGRPGYCLGTR [SCO1_Y60]
classAssignment: b2
--
itemSequence: LKTNWYNNGKD [DNMT3B_Y404_C403W]
classAssignment: b2
